# Tested on: K-562 leukemia
# EXPERIMENT DESCRIPTION: NCI-60 one-dose screen, 48 h (100 = growth as untreated, 0 = no growth, -100 = all killed)
# ASSAY CONDITIONS: 10 µM unless noted
About 83,000 compounds went through this panel and 20% of them were active in at least one assay; those are over-represented in the sample as a whole.
MEASURED PARAMETER: growth (%)
Number in %, nothing else.

CC[PH+](CC)CC.O=COC1OC([S-])C(OC=O)C(OC=O)C1OC=O.[Au+] (stereo not drawn) | -6.71
CN1CCC2(CC1)C(C#N)C(=O)NC(=O)C2C#N (stereo not drawn) | 94.5

Exercise: What value of growth has been recorded for this entry: Cc1cc(Br)c([N+](=O)[O-])cc1[N+](=O)[O-]
Solution: 75

* * *

# Test system: LOX IMVI melanoma
# EXPERIMENT DESCRIPTION: NCI-60 one-dose screen, 48 h
# ASSAY CONDITIONS: 10 µM unless noted
About 83,000 compounds went through this panel and 20% of them were active in at least one assay; those are over-represented in the sample as a whole. Active and inactive are the calls of the source. The calls were made as follows: active = growth percent below 10; inactive = the rest.
Allowed answers: active, inactive

Exercise: Record request — test call for Cc1cc(N)ccc1N
Solution: inactive

Exercise: Just curious, what result did CCN1C(=O)CC(=O)N(CC)C1=S get here?
Solution: inactive

Exercise: What classification did O=c1[nH]c(=O)[nH]c(=O)[nH]1 end up with in this test?
Solution: inactive

Exercise: Hi team, can someone confirm the assay call for CCC(Br)(CC)C(=O)NC(N)=O ?
Solution: inactive

* * *

Overview of recorded growth for various molecules
# Test system: K-562 leukemia
# EXPERIMENT DESCRIPTION: NCI-60 one-dose screen, 48 h (100 = growth as untreated, 0 = no growth, -100 = all killed)
# ASSAY CONDITIONS: 10 µM unless noted
This is part of a sample that, as a whole, favours compounds with a hit. Of some 83,000 tested, about 20% had one in any assay.
Answer format: numeric, % implied, no suffix.

Worked cases, answers included:
C[C@]12CC[C@@H](OC(=O)N(CCCl)N=O)C[C@@H]1CC[C@@H]1[C@@H]2CC[C@]2(C)C(=O)CC[C@@H]12 | 23.2
O=C1CCCCC1CN1CCCCC1 (centres undefined) | 119

Exercise: For O=S(=O)(F)c1cccc(Cl)c1C[P+](c1ccccc1)(c1ccccc1)c1ccccc1 , what is its reported growth?
Solution: 77.2

* * *

# Tested on: KM12 colon
# EXPERIMENT DESCRIPTION: NCI-60 one-dose screen, 48 h
# ASSAY CONDITIONS: 10 µM unless noted
This is part of a sample that, as a whole, favours compounds with a hit. Of some 83,000 tested, about 20% had one in any assay. The source made the active and inactive calls. Rule for the calls: active = growth percent below 10; inactive = the rest.
Parameter call: string, one of active, inactive

CC1(C)N(Nc2ccccc2)C(=O)C2CCCN21 (stereo unspecified) | inactive
OCCN=Cc1c[nH]c2ccccc12 | inactive
CCN1C(=O)NC(=O)C(C)(N2C(=O)c3c(F)c(F)c(F)c(F)c3C2=O)C1=O (stereo unspecified) | active
Cc1ccc(NC2=N[C@]34CC(=O)CC[C@]3(C)[C@H]3CC[C@]5(C)C(=O)CC[C@H]5[C@@H]3C[C@@H]4S2)c(C)c1 | inactive
C[N+]1(C)CCCC1c1cccnc1 (stereo unspecified) | inactive

Turning now to a further record.
Exercise: Record lookup: outcome of this test for C/C(=N/OC(=O)N(C)C)c1ccc(Cl)c(Cl)c1 ?
Solution: inactive
